Assay: Mouse colon distribution
Format: in vivo
Conditions: colon / plasma, PO 50 mg/kg, read-out: Colon/Plasma Ratio at 12 h
quantityName: Kp at 12 h
Enter the number alone.

Any idea what its Kp at 12 h is? The compound is C[C@@H](c1ccc(Nc2cc(Nc3ncccc3S(C)(=O)=O)ncn2)nc1)N1CC2(COC2)C1
33

Consider now this further compound.
Any idea what its Kp at 12 h is? The compound is C[C@@H](c1ccc(Nc2cc(Nc3ncc(F)cc3S(C)(=O)=O)ncn2)nc1)N1CC2(COC2)C1
13

====

Assay: Plasma and tissue distribution in SD rats
Format: in vivo
Settings: female, Sprague-Dawley, rat, plasma, po, 10 mg/kg, plasma, female SD rat, PO 10 mg/kg; read-out: AUC0-24
quantityName: AUC(0-t)
Kindly format the answer as number then unit.

Any idea what its AUC(0-t) is? The compound is C[C@@H](c1ccc(Nc2cc(Nc3ncccc3S(C)(=O)=O)ncn2)nc1)N1CC2(COC2)C1
3610 ng·h/mL

====

Assay: Plasma and tissue distribution in SD rats
Assay type: in vivo
Conditions: male SD rat, PO 10 mg/kg, Small intestine
quantityName: Cmax
Kindly format the answer as number then unit.

Any idea what its Cmax is? The compound is C[C@@H](c1ccc(Nc2cc(Nc3ncccc3S(C)(=O)=O)ncn2)nc1)N1CC2(COC2)C1 [Compound 1]
16500 ng/g

====

Assay: Plasma and tissue distribution in SD rats
Format: in vivo
Conditions: female, Sprague-Dawley (SD); F SD rat, Kidney
quantityName: Tmax
Kindly format the answer as number then unit.

Any idea what its Tmax is? The molecule is C[C@@H](c1ccc(Nc2cc(Nc3ncc(F)cc3S(C)(=O)=O)ncn2)nc1)N1CC2(COC2)C1 [Compound 2]
30 min

====

Entries and their IC50 values follow.
Tested on: GM-CSF induced pSTAT5
Assay: GM-CSF induced pSTAT5 assay in CellSensor irf1-bla TF-1 cells
Format: cell-based
Details: Homo sapiens, GM-CSF 1 ng/mL, read-out: Cellular selectivity (GM-CSF induced pSTAT5)
Method: The CellSensor irfl-bla TF-1 cell line (LifeTechnologies, K1657) was cultured in RPMI 1640 Medium (Invitrogen 72400-047), 10% Fetal Bovine Serum (Invitrogen, 26400044), 1 mM Sodium pyruvate (Life Technologies, 11360039), 1% MEM NEAA (Life Technologies, 11140-035), 2 ng/ml of human recombinant GM-CSF (Fisher, PHC2015), 1% Penicillin/Streptomycin (Life Technologies, 15140-122) and 5 µg/ml of Blasticidin (ThermoFisher, A1113903). […]

Below: 4 compounds and their reported IC50.
Any idea what its IC50 is? The compound is CC(c1ccc(Nc2cc(Nc3ncccc3S(C)(=O)=O)ncn2)nc1C(F)(F)F)N1CC2(COC2)C1 (stereo in doubt)
> 10 µM

What about this compound? CS(=O)(=O)c1cccnc1Nc1cc(Nc2ccc3c(n2)CCCC3N2CC3(COC3)C2)ncn1 (stereo in doubt)
> 10 µM

What about this compound? Cc1nc(Nc2cc(Nc3ncccc3S(C)(=O)=O)ncn2)ccc1[C@H](C)N1CC2(COC2)C1 (stereo in doubt)
< 4 µM

What about this compound? C[C@@H](c1ccc(Nc2cc(Nc3ncccc3S(C)(=O)=O)ncn2)nc1)N1CC2(COC2)C1
4 to 10 µM

Consider now this further compound.
Any idea what its IC50 is? The compound is C[C@@H](c1ccc(Nc2cc(Nc3ncc(F)cc3S(C)(=O)=O)ncn2)nc1)N1CC2(COC2)C1
> 10 µM
